target: SARS-CoV-2 Main Protease (SARS-CoV-2)
pIC50: −log10 of the molar value.
readout_type: pIC50

• COC1(c2cccc(Cl)c2)CCCN(c2cncc3ccccc23)C1=O (stereo not given) = 5.68
• O=C(Nc1cncc2ccccc12)C1CN(C(=O)C2CC2)Cc2ccc(Cl)cc21 (stereo not given) = 6.31
• CC12CC3CC(C)(C1)CC(Nc1cc(Cl)cc(CC(=O)Nc4cncc5ccccc45)c1)(C3)C2 = 5.80

###

# SARS-CoV-2 Main Protease (SARS-CoV-2) (UniProt P0DTD1): IC50 values follow
readout_type: IC50 (nM)

- COC(=O)C(C)NC(=O)C(c1cccnc1)N(C(=O)c1cocn1)c1ccc(C(C)(C)C)cc1 (stereo not given): 7180
- CC(C(N)=O)c1cc(Cl)cc(CC(=O)Nc2cncc3ccccc23)c1 (stereo not given): 2620
- O=C(NCc1cccc(Cl)c1)c1cncc2ccccc12: 32000
- COc1cc(Nc2cc(Cl)cc(CC(=O)Nc3cncc4ccccc34)c2)ccc1Br: 1890
- CCCCOc1ccc(Cl)cc1CC(=O)Nc1cnccc1C: 24800
- COc1cc(CNc2cc(Cl)cc(CC(=O)Nc3cncc4ccccc34)c2)ccc1O: 1880
- O=C(Cc1cccc(Cl)c1)Nc1cncc2c(F)cccc12: 890
- O=C(NNc1nc2ccccc2[nH]1)c1cc(O)nc2ccccc12: 25800
- CNC(=O)CN1CC2(CC(=O)N(c3cncc4ccccc34)C2=O)c2cc(Cl)ccc2C1=O (stereo not given): 260

###

molecular target: SARS-CoV-2 Main Protease (SARS-CoV-2) (UniProt P0DTD1)
pIC50: −log10 of the molar value.
Recorded pIC50 values for a group of molecules are listed next.
readout_type: pIC50

• O=C(Nc1cncc2ccccc12)C1=CCCc2ccc(Cl)cc21 = 6.63
• O=C(CCl)N1CCCN(S(=O)(=O)c2c(F)cccc2F)CC1 = 4.69
• COC1(CS(=O)(=O)N2Cc3ccc(Cl)cc3C(C(=O)Nc3cncc4ccc(C(C)(C)O)cc34)C2)CC1 (stereo not given) = 5.75

###

biological target: SARS-CoV-2 Main Protease (SARS-CoV-2)
The entries below come with measured IC50 values attached.
readout_type: IC50 (µM)

- O=C(Cc1cccc(Cl)c1)Nc1cncc2cn[nH]c12: 2.1
- O=C(Cc1cc(Cl)cc(B(O)O)c1)Nc1cncc2ccccc12: 4.74
- Cc1ccncc1NC(=O)Cc1cc(Cl)cc(OCc2ncn[nH]2)c1: 37
- NS(=O)(=O)c1ccc2c(c1)CN(CC1CCN(C(=O)CCl)CC1)CC2: 19.5
- CC(=O)NCCc1c[nH]c2c(CN3CCN(C(=O)CCl)CC3)cccc12: 17.4
- N#CC1(CS(=O)(=O)N2Cc3ccc(Cl)cc3C(C(=O)Nc3cncc4c[nH]nc34)C2)CC1 (stereo not given): 1.05

###

conditions: rat; in vivo; po; 10.0 mg/kg
Recorded measurements of Tmax, one per entry
readout_type: Tmax

- O=C(Nc1cncc2ccccc12)[C@@H]1CCNc2cc(Cl)c(Cl)cc21 (stereo in doubt): 2 h
- O=C(Nc1cncc2ccccc12)C1CCS(=O)(=O)c2ccc(Cl)cc21 (configuration not stated): 1 h

###

Record type: pIC50 measurement. Applies to: SARS-CoV-2 Main Protease (SARS-CoV-2) (UniProt P0DTD1)
pIC50: −log10 of the molar value.
readout_type: pIC50

- O=C(NCCc1cccc(F)c1)C(c1cccnc1)N(C(=O)c1cnc[nH]1)c1ccc2c(c1)CCC(=O)N2CC(F)F (stereo not drawn): 4.32
- O=C(NCC1CCCCC1)[C@@H]1CN(C(=O)CCl)CCN1S(=O)(=O)c1ccsc1 (stereo in doubt): 5.96
- CNC(=O)CN1Cc2ccc(Cl)cc2C2(CCN(c3cncc4cccc(Cl)c34)C2=O)C1 (stereo not drawn): 5.48
- Cc1ccc(CC(=O)Nc2cncc3ccccc23)cc1: 4.23
- CNC(=O)CN1CC(C(=O)Nc2cncc3c2CCCC3)c2cc(Cl)ccc2C1=O (stereo not drawn): 6.35
- COc1cc(Br)ccc1Nc1cc(Cl)cc(CC(=O)Nc2cncc3ccccc23)c1: 5.86
- CC(C)(C)c1ccc(N(C(=O)c2cocn2)C(C(=O)NCCN2CCOCC2)c2cccnc2)cc1 (stereo not drawn): 4.08
- COCc1ccc2cncc(NC(=O)Cc3cccc(Cl)c3)c2c1: 5.66
- O=C(NCCc1cccc(F)c1)C(c1cccnc1)N(C(=O)c1ccco1)C1CCN(c2ccccc2)CC1 (stereo not drawn): 4.10
- N#CC1(CS(=O)(=O)N2Cc3ccc(Cl)cc3C3(CCN(c4cncc5ccc(OCCN6CCOCC6)cc45)C3=O)C2)CC1 (stereo not drawn): 6.73
- O=C(Cc1cc(Cl)cc(Nc2cc(C(F)(F)F)ccc2Cl)c1)Nc1cncc2ccccc12: 5.79
- NC1CCc2c(NC(=O)C3CCOc4ccc(Cl)cc43)cncc21 (stereo not drawn): 4.59
- COc1ncc(Nc2cc(Cl)cc(CC(=O)Nc3cncc4ccccc34)c2)cc1Br: 5.76
- CCCOc1cc(Cl)cc2c1OCCC2C(=O)Nc1cncc2ccccc12 (stereo not drawn): 5.25
- O=C(NCCc1cccc(F)c1)C(c1cccnc1)N(C(=O)c1ccco1)c1ccc(-c2n[nH]c3c2COCC3)cc1 (stereo not drawn): 4.37
- O=[N+]([O-])c1cnc(Sc2nnc(-c3ccco3)n2-c2ccc(OCc3ccccc3)cc2)s1: 5.14
- Cc1ccncc1NC(=O)Cc1cc(Cl)cc(-c2ccc(C3(C)CCO3)cc2)c1 (stereo not drawn): 5.05
- COc1ccc(Cl)c(Nc2cc(Cl)cc(CC(=O)Nc3cncc4ccccc34)c2)c1: 5.77
- Cc1ccncc1NC(=O)Cc1cc(Cl)cc(-c2ccc(C)c(F)c2F)c1: 4.50
- O=C(Cc1cc(Cl)cc(N2CCN(c3ccc(Br)cn3)CC2)c1)Nc1cncc2ccccc12: 5.50
- O=C(Nc1cncc2ccccc12)C1CN(CC2CC2)C(=O)c2ccc(Cl)cc21 (stereo not drawn): 6.42
- O=C(Cc1cccc(Cl)c1)N1Cc2ccccc2C(O)C1 (stereo not drawn): 4.83
- O=C(Cc1cc(Cl)cc(NCCCN2CCS(=O)(=O)CC2)c1)Nc1cncc2ccccc12: 5.72
- O=C(Cc1cc(Cl)cc(NCc2ccc(Br)cc2F)c1)Nc1cncc2ccccc12: 5.46
- O=C(Cc1cc(Cl)cc(Nc2c(F)cc(Br)cc2F)c1)Nc1cncc2ccccc12: 5.81

###

conditions: mouse; in vivo; iv; 0.5 mg/kg
readout_type: MRT last (min)

- O=C(Nc1cncc2ccncc12)[C@H]1CCOc2ccc(Cl)cc21 (stereo in doubt): 13

###

biological target: SARS-CoV-2 Main Protease (SARS-CoV-2) (UniProt P0DTD1)
pIC50: −log10 of the molar value.
Rule: pIC50 of 6 or more gives YES; anything lower gives NO.

* N#Cc1cc(Cl)cc2c1NCCC2C(=O)Nc1cncc2ccccc12 (stereo unspecified) | YES
* COCCN1CCC(C(=O)Nc2cncc3ccccc23)c2cc(Cl)ccc21 (stereo unspecified) | YES
* CC(C(=O)Nc1cccc2nccnc12)n1cnc2c(N)ncnc21 (stereo unspecified) | NO
* O=C(Cc1cccc(Cl)c1)Nc1cncc2nc[nH]c12 | NO
* CN(C)c1ccc(C(Cc2ccsc2)C(=O)Nc2nnc3ccccn23)cc1 (stereo unspecified) | NO
* O=C(CCl)N1CCN(Cc2cccc3ccccc23)CC1 | NO
* CC(C)(C)c1ccc(N(C(=O)c2ccccc2)C(C(=O)NCCc2cccc(F)c2)c2cccnc2)cc1 (stereo unspecified) | NO
* O=C1N(c2cncc3ccccc23)CCC12CN(S(=O)(=O)CC1(C(F)F)CC1)Cc1ccc(Cl)cc12 (stereo unspecified) | YES
* COc1cccc(CN2CCN(C(=O)c3cc(=O)[nH]c4ccccc34)CC2)c1 | NO
* CCc1ccc(S(C)(=O)=O)cc1C(=O)N1CCC(C2CCNC2)CC1 (stereo unspecified) | NO
* C/C=C/C=C/C(=O)N1CC=C(c2c[nH]c3ncccc23)CC1 | NO
* COC(=O)C1CC(NC(=O)C(c2cccnc2)N(C(=O)c2cocn2)c2ccc(C(C)(C)C)cc2)C1 (stereo unspecified) | NO
* Cc1ccncc1C(C(=O)NCCc1cccc(F)c1)N(C(=O)c1ccco1)c1ccc(C(C)(C)C)cc1 (stereo unspecified) | YES
* Cn1ncc2cncc(NC(=O)C3CN(S(=O)(=O)CC4(C#N)CC4)Cc4ccc(Cl)cc43)c21 (stereo unspecified) | NO
* Cc1nnn(-c2ccc(N(C(=O)c3cocn3)C(C(=O)NCCc3cccc(F)c3)c3cccnc3)cc2)n1 (stereo unspecified) | NO
* CC(NC(=O)Nc1ccn2ccnc2c1)c1ccc2[nH]c(=O)oc2c1 (stereo unspecified) | NO
* O=C(CCl)N1CCN(C(c2ccccc2)c2ccccc2)CC1 | NO
* Nc1nn(C(=O)Cc2cccc(Cl)c2)c2cccnc12 | NO
* CC(C)(C)c1ccc(N(C(=O)c2ccco2)C(C(=O)Nc2ccccc2)c2cccnc2)cc1 (stereo unspecified) | NO
* C=CC(=O)N(c1cc(C(C)(C)C)on1)C(C(=O)NCCc1cccc(F)c1)c1cncc(O)c1 (stereo unspecified) | NO
